Values from PubChem BioAssay (NCI)

Test system: UACC-62 melanoma
Experiment: NCI tumour cell line growth inhibition, 48 h
ATTRIBUTE_MEASURED: TGI

Before answering, review these 5 worked examples.
[[record]]
compound = "C[C@H](O)CCC(=O)c1ccoc1"
result = "> 100 µM"

[[record]]
compound = "CC(C(=O)NCNC(=O)c1ccccc1)C(=O)NCc1ccccc1 (configuration not stated)"
result = "> 100 µM"

[[record]]
compound = "CCOC(=O)c1sc(N)nc1N1CCCC1"
result = "> 100 µM"

[[record]]
compound = "CS(=O)c1cc(=O)c2ccccc2s1 (configuration not stated)"
result = "17.6 µM"

[[record]]
compound = "CCC[CH2][Sn]1([CH2]CCC)[O]C(=O)c2cccnc2[S]1"
result = "5.53 µM"


QUERY: Determine from records and report TGI for CC(C)=CCN1c2ccccc2[C@@]2(CC=C(C)C)CCN(C)[C@@H]12
RESULT: 34.8 µM

QUERY: Determine from records and report TGI for O=c1[nH]c2ccccc2c(=O)c2cc3ccccc3cc12
RESULT: > 100 µM

QUERY: Determine from records and report TGI for CCc1ccc2cc3c(ccc4ccccc43)c3c2c1CC3
RESULT: > 100 µM

###

Each entry below carries its recorded GI50.
System: SF-295 CNS
Assay: NCI tumour cell line growth inhibition, 48 h

Before answering, review these 4 worked examples.
[[record]]
molecule = "O=C(c1ccco1)c1c(C(F)(F)F)n([O-])c2cc(Cl)c(Cl)cc2[n+]1=O"
measurement_target = "SF-295 CNS"
result = "247 nM"

[[record]]
molecule = "O=c1[nH]c2c(ccc3cnccc32)c2c1CCC2"
measurement_target = "SF-295 CNS"
result = "362 nM"

[[record]]
molecule = "COc1cc(F)c(F)c(F)c1C(=O)c1cnc(NC2CCN(S(C)(=O)=O)CC2)nc1N"
measurement_target = "SF-295 CNS"
result = "1580 nM"

[[record]]
molecule = "Cc1ccccc1C1N=C2Oc3ccccc3C=C2C(=O)N1 (stereo not given)"
measurement_target = "SF-295 CNS"
result = "1460 nM"


QUERY: Enter measured GI50, system SF-295 CNS, for the molecule shown: CC(C)c1c(C(=O)Nc2ccccc2)c(-c2ccccc2)c(-c2ccc(F)cc2)n1CC[C@@H](O)C[C@@H](O)CC(=O)O
RESULT: 6740 nM

###

Test system: A498 renal
Experiment: NCI tumour cell line growth inhibition, 48 h; in the data active = GI50 below about 0.43 µM; inactive = the rest
API: response.call in active, inactive

Record excerpt, results attached:
[[record]]
compound = "Cc1ccccc1C1N=C2Oc3ccccc3C=C2C(=O)N1 (stereo not given)"
group = "active"

[[record]]
compound = "Cc1n[nH]c(C)c1-c1c(C)n[nH]c1C"
group = "inactive"

[[record]]
compound = "C=C(CN1CCc2ccccc2C1)c1ccc(C(=O)Nc2cccc(N)c2)cc1"
group = "inactive"

[[record]]
compound = "CC(=O)Nc1ccc(/C=C/C(=O)c2sc(-n3nc(-c4ccccc4)cc3-c3ccccc3)nc2C)cc1"
group = "inactive"


Please find the next compound below.
QUERY: Lab log entry: CNC(=S)N/N=C/CSC/C=N/NC(=S)NC — outcome as called in the assay?
RESULT: inactive

###

Tested on: RPMI-8226 leukemia
Experiment: NCI tumour cell line growth inhibition, 48 h
Each entry below carries its recorded TGI.

Before answering, review these 4 worked examples.
[[record]]
compound = "O=c1[nH]nc(Nc2ccc(Cl)cc2)c2nnn(-c3ccc([N+](=O)[O-])cc3)c12"
measurement_target = "RPMI-8226 leukemia"
result = "> 100 µM"

[[record]]
compound = "CCc1c(N=[N+]=[N-])c2ccccc2oc1=O"
measurement_target = "RPMI-8226 leukemia"
result = "> 100 µM"

[[record]]
compound = "COc1nc2c(c(=O)[nH]1)N=C(c1ccc([N+](=O)[O-])cc1)CC(c1ccccc1)N2 (stereo not given)"
measurement_target = "RPMI-8226 leukemia"
result = "> 100 µM"

[[record]]
compound = "Nc1ncnc2c1ncn2C1SC(CO)C(O)C1O (stereo not given)"
measurement_target = "RPMI-8226 leukemia"
result = "> 100 µM"


# evaluate next
QUERY: Determine from records and report TGI for O=C1C(=C2C(=O)c3ccccc3[N+]2=O)N([O-])c2ccccc21
RESULT: 57.7 µM

###

Tested on: NCI-H23 lung
Assay: NCI tumour cell line growth inhibition, 48 h; in the data active = GI50 below about 0.43 µM; inactive = the rest
API: response.call in active, inactive

Record excerpt, results attached:
[[record]]
compound = "C=C(C)[C@@H]1CC[C@]2(C(=O)OC)CC[C@]3(C)[C@H](CC[C@@H]4[C@@]5(C)CC/C(=N\\OCCC(=NCCC#N)NOCCC#N)C(C)(C)[C@@H]5CC[C@]43C)[C@@H]12"
group = "inactive"

[[record]]
compound = "CC(=O)Nc1ccc(/C=C/C(=O)c2sc(-n3nc(-c4ccccc4)cc3-c3ccccc3)nc2C)cc1"
group = "inactive"

[[record]]
compound = "C=C1C(=O)O[C@H]2[C@H]1CC/C(COC(=O)NCc1ccc(Cn3c(=O)sn(CCCI)c3=O)cc1)=C\\CC[C@@]1(C)O[C@@H]21"
group = "inactive"

[[record]]
compound = "CC[C@@]12CC(C(=O)OC)=C3Nc4ccccc4[C@@]34CCN(C[C@H]3O[C@H]31)[C@@H]24"
group = "inactive"

[[record]]
compound = "CN1CC[C@H](N(C)C(=O)N2CC(c3cc(F)ccc3F)=C[C@@]2(CO)c2ccccc2)[C@H](F)C1"
group = "active"


Please find the next compound below.
QUERY: Lab log entry: Cc1n[nH]c(C)c1-c1c(C)n[nH]c1C — outcome as called in the assay?
RESULT: inactive

###

Tested on: HOP-62 NSCLC
Test: NCI tumour cell line growth inhibition, 48 h
Each entry below carries its recorded TGI.
Numeric only. Scale: µM

[[record]]
compound = "O=[N+]([O-])C1=Cc2c(O)ccc(O)c2C2c3ccccc3NC12 (stereo not drawn)"
attribute_measured = "TGI"
recorded_number = 25

[[record]]
compound = "CCCCCCCCCCCCOC(=N)N1CCOCC1"
attribute_measured = "TGI"
recorded_number = 33.3

[[record]]
compound = "COC(=O)N1C=Cc2c(c(C)c3c([nH]c4ccccc43)c2C)C1C (stereo not drawn)"
attribute_measured = "TGI"
recorded_number = 34.5


QUERY: Determine from records and report TGI for COC(=O)C#CC1(O)C=CC(=O)C=C1
RESULT: 15.7

###

Tested on: A498 renal
Experiment: NCI tumour cell line growth inhibition, 48 h; in the data active means GI50 below about 0.43 µM; inactive means the rest
API: response.call in active, inactive

[[record]]
molecule = "COc1ccc2c(c1)c(-c1nc(-c3cn(C)c4ncccc34)cs1)cn2CCCCN1CCCCC1"
group = "inactive"

[[record]]
molecule = "CCN(CC)CCCC(C)Nc1ccnc2cc(OC)ccc12 (centres undefined)"
group = "inactive"

[[record]]
molecule = "O=C(c1ccco1)c1c(C(F)(F)F)n([O-])c2cc(Cl)c(Cl)cc2[n+]1=O"
group = "inactive"

[[record]]
molecule = "CCCN1CCCC(c2ccc(Nc3nc(Nc4cc(F)ccc4C(N)=O)c4cc[nH]c4n3)c(OC)c2)C1 (centres undefined)"
group = "inactive"

[[record]]
molecule = "CCOc1ccc(-c2nc3ccc(-c4nc5ccc(N6CCN(C)CC6)cc5[nH]4)cc3[nH]2)cc1OCC"
group = "inactive"


QUERY: Lab log entry: CC(=O)Nc1ccc(S(=O)(=O)N2C(=O)CCC2C(=O)Nc2ccccc2)cc1 (centres undefined) — outcome as called in the assay?
RESULT: active

QUERY: Lab log entry: COc1cc2nc(NC3CCC3)nc(NC3CCN(C(C)C)CC3)c2cc1OC — outcome as called in the assay?
RESULT: inactive

QUERY: Lab log entry: CC1SC(c2ccc(OCc3ccccc3)cc2)N(NC(=O)C(O)(c2ccccc2)c2ccccc2)C1=O (centres undefined) — outcome as called in the assay?
RESULT: inactive

QUERY: Lab log entry: O[C@@H]1CCCCN1Cc1cc2cc3c(cc2c2cc(OCc4ccccc4)ccc12)OCO3 — outcome as called in the assay?
RESULT: inactive

###

System: ACHN renal
Assay: NCI tumour cell line growth inhibition, 48 h
ATTRIBUTE_MEASURED: TGI

[[record]]
molecule = "COc1nc2c(c(=O)[nH]1)N=C(c1ccc([N+](=O)[O-])cc1)CC(c1ccccc1)N2 (centres undefined)"
attribute_measured = "TGI"
result = "> 100 µM"

[[record]]
molecule = "CC(=O)Nc1ccc(/C=C/C(=O)c2sc(-n3nc(-c4ccccc4)cc3-c3ccccc3)nc2C)cc1"
attribute_measured = "TGI"
result = "> 100 µM"

[[record]]
molecule = "CC(C)C1CC(CO)(CNc2nc(N)nc(Cl)c2C=O)C1 (centres undefined)"
attribute_measured = "TGI"
result = "22.8 µM"

[[record]]
molecule = "CN1CC[C@H](N(C)C(=O)N2CC(c3cc(F)ccc3F)=C[C@@]2(CO)c2ccccc2)[C@H](F)C1"
attribute_measured = "TGI"
result = "> 100 µM"

[[record]]
molecule = "Nc1ncnc2c1ncn2C1SC(CO)C(O)C1O (centres undefined)"
attribute_measured = "TGI"
result = "> 100 µM"

[[record]]
molecule = "O=C(/C=C/c1c[nH]c2ccccc12)c1ccccc1O"
attribute_measured = "TGI"
result = "25.2 µM"

[[record]]
molecule = "O=C1Nc2ccc(I)cc2/C1=C/c1cc(Br)c(O)c(Br)c1"
attribute_measured = "TGI"
result = "> 85.8 µM"

[[record]]
molecule = "O=c1oc2cc(O)ccc2c(O)c1C(c1ccc(/C=C/c2ccccc2)cc1)c1c(O)c2ccc(O)cc2oc1=O"
attribute_measured = "TGI"
result = "> 100 µM"


QUERY: Determine from records and report TGI for CC(C)c1c(C(=O)Nc2ccccc2)c(-c2ccccc2)c(-c2ccc(F)cc2)n1CC[C@@H](O)C[C@@H](O)CC(=O)O
RESULT: > 91.2 µM

QUERY: Determine from records and report TGI for COc1ccc2c(c1)OCC1c3cc(OC)ccc3OC21 (centres undefined)
RESULT: > 100 µM

QUERY: Determine from records and report TGI for CC(=O)C1=C(C)N2C(=NC3=C(CCc4ccccc43)C2c2ccc(Cl)cc2)S1 (centres undefined)
RESULT: > 100 µM

QUERY: Determine from records and report TGI for O=C1/C(=C/c2ccc(Cl)cc2)NC(=S)N1CN1CCCCC1
RESULT: > 100 µM
